Reference for the values: patent US4321265A

tested on: Citrobacter N-7; experiment: Minimum inhibitory concentration (MIC), Heart Infusion agar; type: cell-based; details: N7; Citrobacter N-7; 10^6 cells/ml; 20 hours, 37° C.; read-out: minimum inhibitory concentration (MIC)
Recorded metric: MIC (µg/mL)

Compound	System name	Units	MIC
CCN1CCN(C(=O)NC(C(=O)N[C@]2(OC)C(=O)N3C(C(=O)O)=C(CSc4nnnn4CCN)CS[C@@H]32)c2cccs2)C(=O)C1=O (some centres unmarked)	Citrobacter N-7	µg/mL	3.13
CCN1CCN(C(=O)NC(C(=O)N[C@]2(OC)C(=O)N3C(C(=O)O)=C(CSc4nnnn4C)CS[C@@H]32)c2csc(N)n2)C(=O)C1=O (some centres unmarked)	Citrobacter N-7	µg/mL	1.56
CCN1CCN(C(=O)NC(C(=O)N[C@]2(OC)C(=O)N3C(C(=O)O)=C(CSc4nnnn4C)CS[C@@H]32)c2cccs2)C(=O)C1=O (some centres unmarked) [drawing 22]	Citrobacter N-7	µg/mL	0.78

(I) CCN1CCN(C(=O)NC(C(=O)N[C@]2(OC)C(=O)N3C(C(=O)O)=C(CSc4nnnn4CCN(C)C)CS[C@@H]32)c2cccs2)C(=O)C1=O (some centres unmarked)
(II) C=Cn1nnnc1SCC1=C(C(=O)O)N2C(=O)[C@](NC(=O)C(NC(=O)N3CCN(CC)C(=O)C3=O)c3cccs3)(OC)[C@H]2SC1 (some centres unmarked)
(III) CCN1CCN(C(=O)NC(C(=O)N[C@]2(OC)C(=O)N3C(C(=O)O)=C(CSc4nnnn4CCO)CS[C@@H]32)c2cccs2)C(=O)C1=O (some centres unmarked)
(IV) CCN1CCN(C(=O)NC(C(=O)N[C@]2(OC)C(=O)N3C(C(=O)O)=C(CSc4nncs4)CS[C@@H]32)c2cccs2)C(=O)C1=O (some centres unmarked)
(V) CCN1CCN(C(=O)NC(C(=O)N[C@]2(OC)C(=O)N3C(C(=O)O)=C(CSc4nnnn4CC(=O)NO)CS[C@@H]32)c2cccs2)C(=O)C1=O (some centres unmarked)
Exercise: Order the entries by their reported MIC, beginning at the minimum. Provide the ranking by listing each label in its place in the requested order.
Key: III, II, I, IV, V
(III: 1.56 µg/mL, II: 3.13 µg/mL, I: 6.25 µg/mL, IV: 12.5 µg/mL, V: 50 µg/mL)

* * *

tested on: Prot. vulgaris GN-76; assay: Minimum inhibitory concentration (MIC), Heart Infusion agar; assay type: cell-based; conditions: Proteus vulgaris, GN76; Prot. vulgaris GN-76; 10^6 cells/ml; 20 hours, 37° C.; read-out: minimum inhibitory concentration (MIC)
Recorded metric: MIC (µg/mL)

For orientation, consider the following solved cases.
Compound	MIC (µg/mL)
CCN1CCN(C(=O)NC(C(=O)N[C@]2(OC)C(=O)N3C(C(=O)O)=C(CSc4nnnn4CC(N)=O)CS[C@@H]32)c2csc(N)n2)C(=O)C1=O (some centres unmarked)	1.56
CCN1CCN(C(=O)NC(C(=O)N[C@]2(OC)C(=O)N3C(C(=O)O)=C(CSc4nnnn4CC(N)=O)CS[C@@H]32)c2ccco2)C(=O)C1=O (some centres unmarked)	1.56
CCN1CCN(C(=O)NC(C(=O)N[C@]2(OC)C(=O)N3C(C(=O)O)=C(CSc4nnnn4CCO)CS[C@@H]32)c2cccs2)C(=O)C1=O (some centres unmarked)	0.39
CCN1CCN(C(=O)NC(C(=O)N[C@]2(OC)C(=O)N3C(C(=O)O)=C(CSc4nnnn4C)CS[C@@H]32)c2ccco2)C(=O)C1=O (some centres unmarked)	0.78
C=Cn1nnnc1SCC1=C(C(=O)O)N2C(=O)[C@](NC(=O)C(NC(=O)N3CCN(CC)C(=O)C3=O)c3cccs3)(OC)[C@H]2SC1 (some centres unmarked)	0.78

(I) CCN1CCN(C(=O)NC(C(=O)N[C@]2(OC)C(=O)N3C(C(=O)O)=C(CSc4nnnn4CCN)CS[C@@H]32)c2cccs2)C(=O)C1=O (some centres unmarked)
(II) CCN1CCN(C(=O)N[C@@H](C(=O)N[C@]2(OC)C(=O)N3C(C(=O)O)=C(COC(C)=O)CS[C@@H]32)c2cccs2)C(=O)C1=O
(III) CCN1CCN(C(=O)NC(C(=O)N[C@]2(OC)C(=O)N3C(C(=O)O)=C(CSc4nnc(C)s4)CS[C@@H]32)c2csc(N)n2)C(=O)C1=O (some centres unmarked)
Exercise: # sort list by recorded MIC, greatest to least Write the labels in rank order as requested.
Key: III, II, I
(III: 3.13 µg/mL, II: 1.56 µg/mL, I: 0.78 µg/mL)

* * *

Tested on: Ser. marcescens W-35
Assay: Minimum inhibitory concentration (MIC), Heart Infusion agar
Assay type: cell-based
Settings: Serratia marcescens, W35, 20 h, Ser. marcescens W-35; 10^6 cells/ml; 20 hours, 37° C. (Table 1); read-out: minimum inhibitory concentration (MIC)
From the text: Antibacterial activities of the representative compounds (Ib) of the 7α-methoxycephalosporins according to this invention are shown in Table 1. [drawing 20] […]
Recorded metric: MIC (µg/mL)

Compound	Units	MIC
CCN1CCN(C(=O)NC(C(=O)N[C@]2(OC)C(=O)N3C(C(=O)O)=C(CSc4nncs4)CS[C@@H]32)c2cccs2)C(=O)C1=O (stereo partly drawn)	µg/mL	12.5

(P) C=Cn1nnnc1SCC1=C(C(=O)O)N2C(=O)[C@](NC(=O)C(NC(=O)N3CCN(CC)C(=O)C3=O)c3cccs3)(OC)[C@H]2SC1 (stereo partly drawn)
(Q) CCN1CCN(C(=O)NC(C(=O)N[C@]2(OC)C(=O)N3C(C(=O)O)=C(CSc4nnnn4CCN)CS[C@@H]32)c2cccs2)C(=O)C1=O (stereo partly drawn)
Exercise: Which numeric MIC is bigger, that of P or that of Q ? When you have decided, please share the label of that item.
Key: P

* * *

test system: Prot. vulgaris GN-76; assay: Minimum inhibitory concentration (MIC), Heart Infusion agar; assay type: cell-based; settings: Proteus vulgaris, GN76; Prot. vulgaris GN-76; 10^6 cells/ml; 20 hours, 37° C.; read-out: minimum inhibitory concentration (MIC)
Recorded metric: MIC (µg/mL)

Molecule	MIC (µg/mL)
CCN1CCN(C(=O)NC(C(=O)N[C@]2(OC)C(=O)N3C(C(=O)O)=C(CSc4nnnn4CC(=O)O)CS[C@@H]32)c2cccs2)C(=O)C1=O (stereo partly drawn)	0.78
CCN1CCN(C(=O)NC(C(=O)N[C@]2(OC)C(=O)N3C(C(=O)O)=C(CSc4nnnn4CC(C)=O)CS[C@@H]32)c2cccs2)C(=O)C1=O (stereo partly drawn)	0.78
CCN1CCN(C(=O)NC(C(=O)N[C@]2(OC)C(=O)N3C(C(=O)O)=C(CSc4nncs4)CS[C@@H]32)c2cccs2)C(=O)C1=O (stereo partly drawn)	0.78
